Assay: Toxicity liver stage against HepG2, at 10uM
Format: cell-based
Parameters: test concentration 10 uM, cell line HepG2-A16-CD81EGFP
Conditions: human, HepG2-A16-CD81EGFP cells; read-out: INHIBITION
Could you please report measured cytotoxicity at 10 µM for the items listed next?
Give bare numbers, in %.

Study these solved cases before continuing.
molecule=Cc1cc(C(=O)N2CC[C@@H](O)[C@@H]2Cc2ccccc2)no1 reported_value=-1.36
molecule=Cc1nc2sccn2c1C(=O)N1CCc2c(nc(N)[nH]c2=O)C1 reported_value=-3.22
molecule="Cc1cc(C)n(CC(=O)N2CCCCC2CCN2CCCC2=O)c(=O)n1 (stereo not drawn)" reported_value=5.09
molecule="CC(C)OCCOCc1cccc(NC(=O)N2CCCC(O)C2)c1 (stereo not drawn)" reported_value=-5.01

# map each molecule to its cytotoxicity at 10 µM
1. Cc1nc(COCc2cnc3n2CCN(C(=O)C2CC2)C3C)cs1 (stereo not drawn)
2. NCc1cn(-c2ccccc2C(=O)NCc2ccccc2Cl)cn1
3. Cc1nnc2ccc(NCC3(N4CCCCC4)CCOCC3)nn12
4. CNc1cncc(C2CCCN2C(=O)c2ccc3oc(C)cc3c2)n1 (stereo not drawn)
5. CC(C)Nc1nc2c(c(NC3CC3)n1)CCN(C(=O)C1CCOC1)CC2 (stereo not drawn)
6. CC(C)(C(=O)NCC1CCN(Cc2ncc[nH]2)C1)c1ccccc1 (stereo not drawn)
7. Cc1noc(C2CN(S(=O)(=O)C3CC3)Cc3ccnn3C2)n1 (stereo not drawn)
8. CC(NC(=O)Nc1ccc(-n2cncn2)cc1)C(=O)NC(C)(C)C (stereo not drawn)

1: 11.4; 2: -9.94; 3: -3.59; 4: 4.52; 5: -145; 6: 2.15; 7: 7.19; 8: 3.92

###

Assay: Toxicity liver stage against HepG2, at 10uM
Assay type: cell-based
Design: test concentration 10 uM, cell line HepG2-A16-CD81EGFP
Conditions: human, HepG2-A16-CD81EGFP cells; read-out: INHIBITION
Could you please report measured cytotoxicity at 10 µM for the items listed next?
Give bare numbers, in %.

compound=Cn1cc(C(=O)N2CCO[C@@H]3CN(C4CCC4)C[C@@H]3C2)cn1 measurement_type="cytotoxicity at 10 µM" result_units=% reported_value=8.55

# map each compound to its cytotoxicity at 10 µM
1. CC(C)CCCNC(=O)Nc1ccc(F)c(C(N)=O)c1
2. CCCN(C(=O)c1cnns1)C1CCCN(Cc2ccccc2)C1 (centres undefined)
3. Cc1nc(C)n(C2CCCN(C(=O)c3cn4cccnc4n3)C2)n1 (centres undefined)
4. O=C(NCCCNc1ccccc1)c1scnc1Cl

1. -2.73
2. -4.35
3. -0.776
4. 1.83

# map each compound to its cytotoxicity at 10 µM
1. Cc1cc(CNC2(c3ccccc3F)CC2)no1
2. CC(C)=CCCC1(C)CCC(=O)N(CCc2csc(N)n2)C1 (centres undefined)
3. Cc1cccn2c(=O)cc(CN3CCCC3Cn3cncn3)nc12 (centres undefined)
4. Brc1cnc(NCc2ccccc2N2CCOCC2)nc1
5. COCCN1CCC(c2nc3ccc(N4CCCC4)cn3n2)CC1

5.71
-4.27
0.714
1.3
11.8

# map each compound to its cytotoxicity at 10 µM
1. CCCc1noc(CS(=O)(=O)c2cccc(OC)c2)n1
2. Clc1snnc1CN1CCCC1Cn1cccn1 (centres undefined)
3. CCC(O)CN1CCN(C(=O)c2cnc3n[nH]c(C)c3c2)CC1 (centres undefined)
4. O=c1ccc(-c2ccccc2F)nn1CCN1CCCS1(=O)=O

1: 17.4; 2: -17.9; 3: -5; 4: -10

###

Assay: Toxicity liver stage against HepG2, at 10uM
Format: cell-based
Parameters: test concentration 10 uM, cell line HepG2-A16-CD81EGFP
Conditions: human, HepG2-A16-CD81EGFP cells; read-out: INHIBITION
measurement.type: cytotoxicity at 10 µM
For clarity, give the value followed by its unit.

# map each compound to its cytotoxicity at 10 µM
1. O=C(Cn1ccc(=O)c2ccccc21)Nc1cnccc1O
2. CC(NC(=O)C1=NN(C)C(=O)CC1)c1ccc(Cl)cc1 (centres undefined)
3. CCCS(=O)(=O)N1C[C@@H]2C[C@H](C(=O)N3CCCC3)[C@H](C1)O2

1: -4.08%; 2: -20.7%; 3: -6.28%

Complete the entry with cytotoxicity at 10 µM for CCS(=O)(=O)N1CCc2onc(COc3ccccn3)c2C1
-4.72%

###

Experiment: Toxicity liver stage against HepG2, at 10uM
Format: cell-based
Parameters: test concentration 10 uM, cell line HepG2-A16-CD81EGFP
Settings: human, HepG2-A16-CD81EGFP cells; read-out: INHIBITION
measurement.type: cytotoxicity at 10 µM

Study these solved cases before continuing.
compound=Cc1nn(C)c2c(N3CCN(C(=O)C4CCC4)CC3)ncnc12 measurement_type="cytotoxicity at 10 µM" reported_value=1.78%
compound=O=C(c1cc(Cl)ccc1OC1CCN(C2CCCC2)CC1)N1CC(O)C1 measurement_type="cytotoxicity at 10 µM" reported_value=-16.2%
compound="CC(C(=O)NC(N)=O)N1CCN(c2ccc(C#N)cc2F)CC1 (stereo not drawn)" measurement_type="cytotoxicity at 10 µM" reported_value=-4.4%

# map each compound to its cytotoxicity at 10 µM
1. N#Cc1ccc(F)c(CNC(=O)NC(CO)Cc2ccccc2)c1 (stereo not drawn)
2. CCS(=O)(=O)N1CCC2(CCC2NC(=O)c2ccn(C)c2)CC1 (stereo not drawn)
3. Cc1cc(C)c(CNC(=O)CCC2CCCO2)c(=O)[nH]1 (stereo not drawn)
4. COC(=O)[C@H]1CN(C(=O)c2cscn2)C[C@@H]1c1ccc(F)cc1
5. Cc1cccc(CN2CC3C[C@]3(NC(=O)c3ccco3)C2)n1 (stereo partly drawn)
6. CC1(Cc2ccc(Cl)cc2)Cc2cc(CCC(=O)O)ccc2O1 (stereo not drawn)

["1.98%", "-2.11%", "5.1%", "-26.3%", "-142%", "2.79%"]

###

Test: Toxicity liver stage against HepG2, at 10uM
Assay type: cell-based
Design: test concentration 10 uM, cell line HepG2-A16-CD81EGFP
Conditions: human, HepG2-A16-CD81EGFP cells; read-out: INHIBITION
measurement.type: cytotoxicity at 10 µM (%)
One number for each entry, in %.

compound=CCN(Cc1ccco1)C(=O)c1cc(OC)c2c(c1)OCCO2 reported_value=-4.22
compound="CN(CCN1CCCCCC1)C(=O)c1cc(CN2CCCC(O)C2)on1 (stereo unspecified)" reported_value=-0.641
compound=CC(C)n1cc(C(=O)N2CCC(n3cc(C(C)(C)C)nn3)CC2)cn1 reported_value=1.19

# map each compound to its cytotoxicity at 10 µM
1. COc1ccc(F)c(F)c1C(=O)N1C[C@@H](CN(C)CCO)[C@@H](CO)C1
2. Cc1nc2c(c(C)c1CC(=O)NCc1cccc(C#N)c1)c(=O)[nH]n2C
3. CC(=O)N[C@@H]1CN(CC(=O)NCc2ccccc2C)C[C@H]1C(C)C
4. CCCn1nnc(NCc2ccc(-c3ccc(Br)cc3)o2)n1
5. Cc1nc2c(c(NCC3Cc4ccccc4CN3C)n1)CCNCC2 (stereo unspecified)
6. CC(=O)N1CC(=O)N(c2ccccc2)CC12CCN(Cc1cccs1)C2 (stereo unspecified)
7. CO[C@@H]1CO[C@@]2(CCCN(C(=O)N3CCCC3)C2)C1

1: -1.02; 2: -0.722; 3: 4.25; 4: -4.11; 5: -9.08; 6: -11.1; 7: -98.6

# map each compound to its cytotoxicity at 10 µM
1. COc1ncccc1C(=O)N1CC[C@H]2C[C@@H](c3nccs3)O[C@@H]2C1
2. Cc1nc(CN2CCC3(CCN(C(=O)c4ccoc4C)CC3)C2)cs1
3. Cc1ccc2nc(-c3cnc(N)nc3)c(C)c(C(=O)N(C)C)c2c1
4. CC(Nc1cccc2c1OCCO2)C(=O)Nc1cccc(C#N)c1 (stereo unspecified)
5. COc1ccc(CNC(=O)NC2CCN(CC(F)F)CC2)cc1C
6. Cc1ccc(CN(C)C(=O)c2ccc(NC3CC3)nc2)o1

[-0.123, -5.19, -13.8, 4.7, 1.11, -5.57]

###

Could you please report measured cytotoxicity at 10 µM for the items listed next?
Experiment: Toxicity liver stage against HepG2, at 10uM
Type: cell-based
Set-up: test concentration 10 uM, cell line HepG2-A16-CD81EGFP
Details: human, HepG2-A16-CD81EGFP cells; read-out: INHIBITION

Study these solved cases before continuing.
compound=CN(C)c1ncnc2c1CCN(CC1CCCC1)CC2 reported_value=1.03%
compound=O=C(N1CCC(OCc2ccccn2)CC1)C1(c2ccc(F)cc2)CC1 reported_value=0.178%
compound=NC(=O)C1CCN(Cc2csc(-c3ncccn3)n2)CC1 reported_value=-6.04%
compound="c1cnc(CC2COCCN(C3CCCCC3)C2)cn1 (stereo not given)" reported_value=0.514%

# map each compound to its cytotoxicity at 10 µM
1. Cc1cc(C)c(CNC(=O)N2CCCC2c2cc(C)on2)c(=O)[nH]1 (stereo not given)
2. COc1ccc(-c2cc(CN)nc3ccnn23)cc1

["1.1%", "-5.75%"]
